Recorded FACS binding data by entry
Biological target: Mutant CD33-GFP JS25 (V25M) on 293FT cells (UniProt P20138)
Sequence (P20138 18-364 V25M): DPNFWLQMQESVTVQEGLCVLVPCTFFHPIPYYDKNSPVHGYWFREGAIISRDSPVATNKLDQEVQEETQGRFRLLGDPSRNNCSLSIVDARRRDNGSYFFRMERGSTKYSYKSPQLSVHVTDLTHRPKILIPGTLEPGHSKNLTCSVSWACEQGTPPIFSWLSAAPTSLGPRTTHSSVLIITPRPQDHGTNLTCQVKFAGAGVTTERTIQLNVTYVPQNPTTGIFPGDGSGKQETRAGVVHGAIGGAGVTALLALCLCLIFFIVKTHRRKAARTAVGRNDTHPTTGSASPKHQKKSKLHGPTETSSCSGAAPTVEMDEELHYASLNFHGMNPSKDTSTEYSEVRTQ
Experiment: FACS, mutant CD33-GFP on 293FT cells
// print number alone

{"binder": "sdCD33_8 (VHH, sdAb from a naive llama phage library; also called 424; sdAb424) VHH: QVQLVESGGGLVQAGGSLRLSCAASGGAFSTYTMGWFRQAPGKEREFVAAIAWTGTHTYYSDSVKGRFTISRDNDKNTVFLQMNSLKPEDTAVYYCAQASSRYRAVTDSLSENHWGPGTQVTVST", "measured-quantity": "FACS binding data", "measured-result": 99.6}

Any idea what its FACS binding data is? The binder is sdCD33_6 (VHH, sdAb from a naive llama phage library; also called 416; sdAb416) VHH: EVQLVESGGGLVQPRGSLRLSCVVSGSMSSIYSMSWYRQPPGKQRELVAHITTTGTTNYIDSVKGRFTISIDNDINVIYLQMNTLKPEDTAVYYCNAGLKAGPGPRLDYWGLGTQVTVSS
99

Given the binder sdCD33_9 (VHH, sdAb from a naive llama phage library; also called 426; sdAb426) VHH: QVKLEESGGGLVRAGGSLRLSCAASGGTFSTYAMAWFRQAPGKEREFVAAITWGGGSTYYEDSVKGRFTISRDNAKNTGVLQMNNLDVDDTAVYYCYAFGRSRAGDANGDYWGQGTQVTVSS , what is its reported FACS binding data?
99.7

What FACS binding data value was documented for this binder, sdCD33_7 (VHH, sdAb from a naive llama phage library; also called 420; sdAb420) VHH: EVQLVESGGGLVQPGGSLRLSCVASGFTFKDYGMTWVRQAPGKALEWVSDINSAGDGIYYSDSVKGRFTISRDDSKGTLYLQMNSLTPEDTAIYYCAAERQRAGDVKRSLAPITAHIWGQGTQVTVSS ?
99.5

Param item = sdCD33_5 (VHH, sdAb from a naive llama phage library; also called 413; sdAb413) VHH: QVQLQESGGGLVQPGGSLRLSCAASGSVFSIYAMAWYRQAPGKQRELVAVITSGGATNYADSVKGRFTISRDIAKKTLYLQMNTLKPEDTAVYYCYAHLLIQPFDRFYDYWGQGTQVTVSS ; retrieve measured FACS binding data.
99.5

# get_value(readout='FACS binding data', item= sdCD33_11 (VHH, sdAb from a naive llama phage library; also called 430; sdAb430) VHH: AVQLVESGGGLVQAGGSLRLSCAASGDTFANYAMGWFRQAPGKEREFVAAISWSDSSTHYADSVKGRFTIPRDNAKNAVYLQMDQLKPEDMAVYYCYAYIRGVGEVRYVDYWGQGTQVTVSS )
99.7

Entry sdCD33_3 (VHH) VHH: DVQLVESGGGLVQPGGSLRLSCSVSGNIDRFYAMGWYRQAPGKQRELVAQLTNNEITTYGDSVEGQFSISGDFDANTVYLQMDSLKPEDTAVYYCHAHVTTTRWSQDYYWGQGTRVTVSS : reported FACS binding data = ?
99.7

Reported FACS binding data for sdCD33_4 (VHH) VHH: QVKLEESGGGSVQAGESLRLSCTASGITFRDYDIDWYRQAPGKEREWLATITPSGTTHYPDSVKGRATISRDSAKNTVYLQMNSLKPEDTARYECNTLAYWGSGTQVTVSS : what is it?
99.5

Reported FACS binding data, binder sdCD33_10 (VHH) VHH: QVQLVETGGGLVRAGGSLRLSCAASGRTADIYNIGWFRQAPGKEREFVAAITWIGRTPYYADAVKGRFAFSTDSAKNTVSLQMDNLKPEDTGVYYCNAAHYLEGNTDYYWGQGTQVTVSS : ____
99.6

May I ask what FACS binding data has been recorded for sdCD33_2 (VHH) VHH: QVQLVQPGGSLRLFCVASEEFFSIYAMGWYRQAPGKQHEMVARFTRDGKITYADSAKGRFTITRDAKNTLNLQMNGLIPEDTAVYYCNINHYWGQGTQVTVSS ?
99.3

Data origin: patent US20230365675A1
